Assay: PK protocol, intravenous administration in rats
Assay type: in vivo
Conditions: rat, 1 mg/kg, male Sprague Dawley rats, plasma, read-out: Vdss
assay-endpoint: Vd (L/kg)
Give just the numeric value; L/kg need not be written.

COc1cc(-c2ccc3c(c2NC(=O)NS(=N)(=O)c2nn(C(C)C)cc2Cl)CCC3)ccn1 (stereo not drawn) [Example 11] ... 0.45
COc1cc(-c2ccc3c(c2NC(=O)NS(=N)(=O)c2ccn(C(C)C)n2)CCC3)ccn1 (racemic) [Example 14] ... 0.34

Now let's try a different one.
Lab book: Vd of C[C@@H](O)Cn1ccc(S(=N)(=O)NC(=O)Nc2c3c(cc4c2CCC4)CCC3)n1 (stereo partly drawn) [Example 3] noted as 0.75

* * *

Target: NLRP3 (Homo sapiens, UniProt Q96P20)
Sequence (Q96P20 whole entry): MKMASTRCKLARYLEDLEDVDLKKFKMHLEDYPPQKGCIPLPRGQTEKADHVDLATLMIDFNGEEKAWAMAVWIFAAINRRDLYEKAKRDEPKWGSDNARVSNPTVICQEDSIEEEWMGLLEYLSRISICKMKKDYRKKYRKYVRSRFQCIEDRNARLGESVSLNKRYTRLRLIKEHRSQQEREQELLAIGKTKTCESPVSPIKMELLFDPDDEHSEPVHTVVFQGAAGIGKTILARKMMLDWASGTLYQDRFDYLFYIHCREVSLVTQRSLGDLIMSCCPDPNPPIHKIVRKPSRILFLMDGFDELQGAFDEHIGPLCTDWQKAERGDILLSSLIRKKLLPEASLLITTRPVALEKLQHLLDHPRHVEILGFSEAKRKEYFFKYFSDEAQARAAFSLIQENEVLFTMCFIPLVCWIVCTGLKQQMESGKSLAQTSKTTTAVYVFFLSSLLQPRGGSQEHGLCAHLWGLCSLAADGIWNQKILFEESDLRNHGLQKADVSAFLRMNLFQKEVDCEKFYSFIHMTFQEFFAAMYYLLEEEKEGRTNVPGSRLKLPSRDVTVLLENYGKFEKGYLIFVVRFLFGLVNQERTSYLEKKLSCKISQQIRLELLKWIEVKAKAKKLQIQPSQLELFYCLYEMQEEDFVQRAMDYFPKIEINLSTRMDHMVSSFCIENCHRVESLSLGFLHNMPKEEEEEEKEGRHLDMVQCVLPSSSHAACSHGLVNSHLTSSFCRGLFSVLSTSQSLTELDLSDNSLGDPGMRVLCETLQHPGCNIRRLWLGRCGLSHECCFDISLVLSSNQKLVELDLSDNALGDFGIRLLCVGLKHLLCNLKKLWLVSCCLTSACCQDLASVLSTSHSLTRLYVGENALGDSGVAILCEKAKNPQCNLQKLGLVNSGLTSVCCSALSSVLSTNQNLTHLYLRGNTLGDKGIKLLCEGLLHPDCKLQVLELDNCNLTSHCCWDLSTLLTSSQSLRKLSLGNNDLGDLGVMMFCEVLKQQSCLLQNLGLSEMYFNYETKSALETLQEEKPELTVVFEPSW
Assay: THP-1 cells pyroptosis assay
Type: cell-based
Parameters: Seed THP-1 cells (25,000 cells/well) containing 1.0 μg/ml LPS in 40 μl of RPMI medium; host or cells: THP-1 cells
Settings: NLRP3 inhibitory activity, 1.0 μg/ml LPS, nigericin 5 μM, resazurin readout
assay-endpoint: IC50

Lab book: IC50 of COc1cc(-c2ccc3c(c2NC(=O)N[S@](=N)(=O)c2ccn(C(C)C)n2)CCC3)ccn1 noted as < 1 µM

Lab book: IC50 of CCN(CC)CCCS(=N)(=O)NC(=O)Nc1c2c(cc3c1CCC3)CCC2 (stereo not shown) noted as < 10 µM

* * *

Experiment: PK protocol, intravenous administration in rats
Type: in vivo
Conditions: rat, 1 mg/kg, male Sprague Dawley rats, plasma
assay-endpoint: clearance (mL/min/kg)
Give just the numeric value; mL/min/kg need not be written.

COc1cc(-c2ccc3c(c2NC(=O)NS(=N)(=O)c2ccn(C(C)C)n2)CCC3)ccn1 (racemic) ... 9.6

Lab book: clearance of COc1cc(-c2ccc3c(c2NC(=O)NS(=N)(=O)c2nn(C(C)C)cc2Cl)CCC3)ccn1 (stereo not drawn) noted as 6.1

Lab book: clearance of C[C@@H](O)Cn1ccc(S(=N)(=O)NC(=O)Nc2c3c(cc4c2CCC4)CCC3)n1 (stereo partly drawn) noted as 7.4

* * *

Below, each entry is listed alongside its reported pIC50.
Target: NLRP3 (Homo sapiens, UniProt Q96P20)
Assay: Human whole blood IL1β release assay
Assay type: cell-based
Design: Plate out 80 μl of whole blood containing 1 μg/ml of LPS in 96-well, clear bottom cell culture plate; from tissue; host or cells: human whole blood from healthy donors
Conditions: NLRP3 inhibitory activity, 1 μg/ml LPS, nigericin 10 μM, IL-1β by AlphaLisa, read-out: HWB IC50
pIC50: −log10 of the molar value.

Use the examples below as a reference point.
COc1cc(-c2ccc3c(c2NC(=O)N[S@@](=N)(=O)c2ccn(C(C)C)n2)CCC3)ccn1 [Example 27] ... > 6.30
COc1cc(-c2ccc3c(c2NC(=O)NS(=N)(=O)c2ccn(C(C)C)n2)CCC3)ccn1 (racemic) [Example 14] ... > 6.30
CC(C)n1ccc(S(=N)(=O)NC(=O)Nc2c(-c3ccncc3)cc(F)c3c2CCC3)n1 (stereo not drawn) [Example 24] ... > 6.30
C[C@@H](O)Cn1ccc(S(=N)(=O)NC(=O)Nc2c3c(cc4c2CCC4)CCC3)n1 (stereo partly drawn) [Example 3] ... > 6.30
CC(C)N1CC(S(=N)(=O)NC(=O)Nc2c3c(cc4c2CCC4)CCC3)C1 (stereo not drawn) [Example 7] ... > 5.30
COc1cc(-c2ccc3c(c2NC(=O)NS(=N)(=O)c2nn(C(C)C)cc2Cl)CCC3)ccn1 (stereo not drawn) [Example 11] ... > 6.00

So the reported pIC50 for COc1cc(-c2ccc3c(c2NC(=O)NS(=N)(=O)c2ccn(C[C@@H](C)O)n2)CCC3)ccn1 (stereo partly drawn) [Example 17] , on NLRP3 (Homo sapiens, UniProt Q96P20), turned out to be > 6.30

So the reported pIC50 for C[C@@H](O)Cn1ccc(S(=N)(=O)NC(=O)Nc2c(-c3ccncc3)cc(F)c3c2CCC3)n1 (stereo partly drawn) [Example 25] , on NLRP3 (Homo sapiens, UniProt Q96P20), turned out to be > 6.30

So the reported pIC50 for CC(C)n1cc(Cl)c(S(=N)(=O)NC(=O)Nc2c(-c3ccncc3)cc(F)c3c2CCC3)n1 (stereo not drawn) [Example 26] , on NLRP3 (Homo sapiens, UniProt Q96P20), turned out to be > 6.30

So the reported pIC50 for COc1cc(-c2cc(F)cc(C(C)C)c2NC(=O)NS(=N)(=O)c2ccn(C[C@@H](C)O)n2)ccn1 (stereo partly drawn) [Example 19] , on NLRP3 (Homo sapiens, UniProt Q96P20), turned out to be > 6.00

So the reported pIC50 for CC(C)n1cc(Cl)c(S(=N)(=O)NC(=O)Nc2c3c(cc4c2CCC4)CCC3)n1 (stereo not drawn) [Example 2] , on NLRP3 (Homo sapiens, UniProt Q96P20), turned out to be > 5.30

So the reported pIC50 for CN(C)CCn1ccc(S(=N)(=O)NC(=O)Nc2c3c(cc4c2CCC4)CCC3)n1 (stereo not drawn) [Example 10] , on NLRP3 (Homo sapiens, UniProt Q96P20), turned out to be > 6.30

So the reported pIC50 for CC(C)c1cc(F)cc(-c2ccnc(C#N)c2)c1NC(=O)NS(=N)(=O)c1nn(C(C)C)cc1Cl (stereo not drawn) [Example 12] , on NLRP3 (Homo sapiens, UniProt Q96P20), turned out to be > 6.30

So the reported pIC50 for COc1cc(-c2cc(F)cc(C(C)C)c2NC(=O)NS(=N)(=O)c2nn(C(C)C)cc2Cl)ccn1 (stereo not drawn) [Example 13] , on NLRP3 (Homo sapiens, UniProt Q96P20), turned out to be > 6.00

So the reported pIC50 for COc1cc(-c2ccc3c(c2NC(=O)N[S@](=N)(=O)c2ccn(C(C)C)n2)CCC3)ccn1 [Example 28] , on NLRP3 (Homo sapiens, UniProt Q96P20), turned out to be > 5.30

So the reported pIC50 for COc1cc(-c2cc(F)cc(C(C)C)c2NC(=O)NS(=N)(=O)c2ccn(C(C)C)n2)ccn1 (stereo not drawn) [Example 16] , on NLRP3 (Homo sapiens, UniProt Q96P20), turned out to be > 6.00

So the reported pIC50 for CC(C)c1cc(F)cc(-c2ccnc(C#N)c2)c1NC(=O)NS(=N)(=O)c1ccn(C(C)C)n1 (stereo not drawn) [Example 15] , on NLRP3 (Homo sapiens, UniProt Q96P20), turned out to be > 6.00

So the reported pIC50 for CC(c1cc(S(=N)(=O)NC(=O)Nc2c3c(cc4c2CCC4)CCC3)nn1C)N1CCC1 (stereo not drawn) [Example 22] , on NLRP3 (Homo sapiens, UniProt Q96P20), turned out to be > 6.30
